Source: ChEMBL document CHEMBL1201862

# Tested on: HT-29
# methodSummary: NCI tumour cell line growth inhibition, 48 h
Calls of active or inactive are those of the source. No stated cut-off is given here; in the data, active = GI50 up to about 1.1 µM and inactive = higher. Residues, ends and D or L forms follow the SMILES beside them.
reportedEndpoint: GI50

Report GI50, nothing else, for this compound: CCCCC(CCCC)=NNC(=S)SC
33.6 µM (inactive)

Give the reported GI50 for this compound. Cc1cc(N(CCC#N)S(=O)(=O)c2ccccc2)ccc1/C=N\c1cccc(C(=O)O)c1
> 100 µM (inactive)

Using known records, supply GI50 for Nc1nc(=O)c(/N=N/c2ccccc2)c(C(=O)O)[nH]1
45.5 µM (inactive)

For the compound CC(=O)OCc1cc2ccccc2nc1C(Br)(Br)Br , report GI50.
21.6 µM (inactive)

Query GI50 for CC(NC(=N)N)C(=O)O (stereo not given)
> 100 µM (inactive)

Annotate the compound CCOC(=O)c1c2ccc(/C=C/c3ccccc3)ccc-2c(C(=O)OCC)c1N with its measured GI50.
95.3 µM (inactive)

Could you please provide reported GI50 for COC(=O)C1=CON2C3CC4CC(C3)CC(C4)C12C (stereo not given) ? Thanks!
> 100 µM (inactive)

Please report the measured GI50 for O=C(CC(C(=O)c1cccs1)c1cccs1)c1ccccc1Cl (stereo not given)
76.6 µM (inactive)

Please list GI50 recorded for the compound CC(C)(C)[Si](C)(C)OCc1cccc(OCCOc2cccc(CO[Si](C)(C)C(C)(C)C)c2[N+](=O)[O-])c1[N+](=O)[O-]
> 100 µM (inactive)

Complete the entry with GI50 for O=C(NCCCCCCNC(=O)NC1OCC(O)C(O)C1O)NC1OCC(O)C(O)C1O (stereo not given)
> 100 µM (inactive)

For the compound Cc1cc(N(CCCCl)CCCCl)ccc1/C=N/c1cccc(Cl)c1 , give its measured GI50 value.
14.6 µM (inactive)

Please report GI50 for the following compound: O=c1c2ccccc2nc(-c2ccccc2)n1O
> 100 µM (inactive)

Return value of GI50 for input O=c1c2c3c(sc2nc(CN2CCNCC2)n1-c1ccccc1)CCCC3 , no commentary.
35.9 µM (inactive)

Find the measured GI50 of COc1ccccc1NC(=O)/C(=C/c1ccccc1)C(C)=O and report it.
32.3 µM (inactive)

State its GI50 for this compound: COc1ccc(NCC(=O)Nn2c(-c3ccccc3)nc3ccccc3c2=O)cc1
32.4 µM (inactive)

Input O=C(CC(=O)C(=O)Nc1ccccc1)CC(c1ccccc1)c1c(O)c2ccccc2oc1=O (stereo not given) , output reported GI50.
> 100 µM (inactive)

For the compound COc1cc(OC)c(/C=C\c2ccnc3ccccc23)c(OC)c1 , give its reported GI50.
2.67 µM (inactive)

For O=c1[nH]cc(COCC(O)CO)c(=O)[nH]1 (stereo not given) , write its GI50.
> 100 µM (inactive)

Entry COc1cc(/C=C2\N=C(c3ccccc3)N(c3nc4c(OC)ccc(OC)c4s3)C2=O)ccc1O needs its GI50 filled in; supply it.
> 100 µM (inactive)

Please look at this compound and report its GI50: C(=N\c1ccc(-c2nc3ccccc3s2)cc1)/c1ccco1
70 µM (inactive)

Determine from records and report GI50 for COc1cccc(C2c3cc4c(cc3OC3COC(=O)C32)OCO4)c1OC (stereo not given)
> 100 µM (inactive)

State, in one line, measured GI50 of CCc1oc2ccccc2c1C(=O)c1cc(Br)c(O)c(Br)c1 [BENZBROMARONE]
30.3 µM (inactive)

Quick one: give measured GI50 for COC1OC(=O)[C@H]2O[N+]([O-])=C(C)[C@@H]12 (stereo not given in full)
> 100 µM (inactive)

Report GI50 for CC(C)(C)C1=C(Br)C(O)(C(C)(C)C)OP1(=O)c1ccccc1 (stereo not given)
> 100 µM (inactive)

Item CC(=O)NC(CO)C(=O)NC(Cc1ccc(O)cc1)C(=O)NCC(N)=O (stereo not drawn) (Ac-Ser-Tyr-Gly-NH2; configuration not given here) : provide GI50
> 100 µM (inactive)
